Tested on: DLD-1 colon
Experiment: NCI tumour cell line growth inhibition, 48 h
Form field: TGI (one value per entry).

CC1(C=O)C(=O)CCC2(C)C3CC(=O)OC3CCC12 (stereo unspecified): > 100 µM
CCN(CC)c1c(C)c(C(=O)OC)nn1-c1ccccc1: > 100 µM
CC1C=CC(O)[C@]2(CO)CC3(CCC12)OCCO3 (stereo partly specified): > 100 µM

Looking up O=c1cc(O)ccn1C1C=C(CO)C(O)C1O (stereo unspecified) , I found its TGI recorded as > 625 µM

Looking up `NC(N)=NS(=O)(=O)c1ccc(NC(=O)c2cccc3c(Nc4ccc(S(=O)(=O)N=C(N)N)cc4)c4ccccc4nc23)cc1` , I found its TGI recorded as > 100 µM

Looking up `Cn1c2c(c3ccccc31)CCN(CCCN1CCN(c3cccc(Cl)c3)CC1)C2=O` , I found its TGI recorded as > 100 µM

----------
Tested on: DU-145 prostate
Test: NCI tumour cell line growth inhibition, 48 h
Attribute Measured: GI50

Oc1ccc(Cl)cc1-c1cc(-c2ccc(Cl)cc2)n[nH]1: 3.02 µM
Cc1oc2nc[nH]c(=O)c2c1C(=O)/C=C/c1ccc(Br)cc1: 2.03 µM
Cc1ccc(/C(=C/C=C(/C#N)C(N)=O)Sc2ncnn2C)cc1: 6.61 µM
Clc1ccc(-c2nc(-c3ccccc3)cn3ccnc23)cc1: 11.9 µM

Field GI50 (system: DU-145 prostate) for entry `CN(C)c1ccc(N=Nc2ccc(Br)cn2)c(O)c1` = 0.653 µM

----------
System: 786-0 renal
Assay: NCI tumour cell line growth inhibition, 48 h
Form field: TGI (one value per entry).
API: value field is a number in µM; no unit string.

O=C(c1cccs1)c1c(C(F)(F)F)n([O-])c2ccc(Cl)cc2[n+]1=O: 0.069
C=C(C)C12OC3(c4ccccc4)OC1C1C4OC4(CO)C(O)C4(O)C(=O)C(C)=CC4C1(O3)C(C)C2OC(=O)/C=C/C=C/c1ccccc1 (stereo not given): 0.699
COC(=O)C12OCC34C(CC5C(C)=C(O)C(=O)CC5(C)C3C(O)C1O)OC(=O)C(OC(=O)C=C(C)C)C24 (stereo not given): 0.689
COC(=O)[C@]1(C)CCC[C@]2(C)[C@H]3CC[C@]4(C(C)C)OO[C@@H](O4)[C@]34O[C@@H]4C[C@H]21: 3.49
C/C(=N\NC(=S)N1CCN(c2ccccn2)CC1)c1cccc(C)n1: 3.31
COC(=O)[C@]12CC[C@@H](C(=O)/C=C/c3cccnc3)[C@@H]1[C@H]1CC[C@@H]3[C@@]4(C)C/C(=C/c5cccnc5)C(=O)C(C)(C)[C@@H]4CC[C@@]3(C)[C@]1(C)CC2: 1.33

# next molecule below
Looking up `COc1ccc(-c2cn(-c3cccc(C(=O)/C=C/c4cc(OC)c(OC)c(OC)c4)c3)c(=O)[nH]2)cc1` , I found its TGI recorded as 3.25

----------
Tested on: OVCAR-8 ovarian
Assay: NCI tumour cell line growth inhibition, 48 h
Form field: GI50 (one value per entry).

Recorded results for 3 compounds are shown here.
COc1ccc(-c2cn(-c3cccc(C(=O)/C=C/c4cc(OC)c(OC)c(OC)c4)c3)c(=O)[nH]2)cc1: 2530 nM
C/C(=C\COc1ccc2ccc(=O)oc2c1)C1=CC(=O)C(C)(C)O1: 2180 nM
CCN1C2=C(SC(=S)C1=C1SC(C(=O)OC)=C(C(=O)OC)S1)SC(=Nc1ccc(OC)cc1)C2=O: 2820 nM

Looking up `CC(C)CNC(=O)c1ccc(NC(=O)N(CC(C)C)C(=O)c2ccc(N)c(OCCCN)c2)c(OCCCN=C(N)N)c1` , I found its GI50 recorded as > 62500 nM

Looking up `CS(=O)(=O)OCCn1c2c(c3c(O)cccc31)C(=O)c1ccccc1-2` , I found its GI50 recorded as > 100000 nM

Looking up `C=C(C)[C@@H]1CC[C@]2(C)[C@H](CC[C@@H]3[C@@H]([C@@](C)(O)CCC=C(C)C)CC[C@]32C)[C@@]1(C)CCC(=O)N1CCN(C)CC1` , I found its GI50 recorded as 14100 nM

Looking up `Cc1oc2nc[nH]c(=O)c2c1C(=O)/C=C/c1ccc(Br)cc1` , I found its GI50 recorded as 2080 nM

Looking up `O=C(c1cccs1)c1c(C(F)(F)F)n([O-])c2ccc(Cl)cc2[n+]1=O` , I found its GI50 recorded as 1260 nM

Looking up `Clc1ccc(-c2nc(-c3ccccc3)cn3ccnc23)cc1` , I found its GI50 recorded as 20600 nM

Looking up CC(C)=C[C@@H]1C[C@H](C)[C@H]2CC[C@H](C)c3c(O)c(OC4OCC(O)C(O)C4O)c(C)c1c32 (stereo not given in full) , I found its GI50 recorded as 16600 nM

----------
Tested on: HL-60(TB) leukemia
Test: NCI tumour cell line growth inhibition, 48 h; in the data active means GI50 below about 0.43 µM; inactive means the rest
Would you mind answering with one of these outcomes? T = active, F = inactive

A selection of reference data follows.
CC1CN=C(c2cccc(-c3ccc(-c4ccccc4)o3)c2)N1 (stereo unspecified): F
c1ccc(-c2cccc(-c3ccccn3)n2)nc1: T
N=C(N)c1ccc(-c2ccc(-c3ccc(F)cc3)s2)nc1: F
O=c1[nH]c2c3ccncc3cc(-c3cccc(Cl)c3)c2c2cnccc12: F

Entry `CCOC(=O)C#Cc1c(C(=O)OCC)nnn1Cc1ccc(C(F)(F)F)cc1` : call = ?
F

Entry `Oc1ccc(Cl)cc1-c1cc(-c2ccc(Cl)cc2)n[nH]1` : call = ?
F

----------
Form field: TGI (one value per entry).
Tested on: OVCAR-5 ovarian
Test: NCI tumour cell line growth inhibition, 48 h

COc1ccc(CCCNC(=O)Cc2ccccc2CO)cc1OC: > 100 µM
O=C1c2ccccc2C(=O)c2c1ccc(O)c2O: > 100 µM
COc1ccc(-n2cnc3c(NCC(=O)O)ncnc32)cc1: > 100 µM
COC(=O)[C@]1(C)CCC[C@]2(C)[C@H]3CC[C@]4(C(C)C)OO[C@@H](O4)[C@]34O[C@@H]4C[C@H]21: 16.3 µM
Cc1cn(C2OC(CO)C(O)C2O)c(=O)[nH]c1=O (stereo not given): > 1000 µM

Looking up `CN(C)CCn1c(=O)nc2c3c(c([N+](=O)[O-])ccc31)Nc1ccc(O)cc1-2` , I found its TGI recorded as > 81.2 µM

Looking up `COc1ccc2nc3cc(Cl)ccc3c(N)c2c1` , I found its TGI recorded as 3.66 µM

----------
Tested on: RPMI-8226 leukemia
Experiment: NCI tumour cell line growth inhibition, 48 h
Where a SMILES comes first, the peptide text is derived from it. [ ]: non-standard residue; d: D form. The star is where a group is joined. ξ: configuration not given here. ξHyp = O=C(O)C1CC(O)CN1; Cbz = O=C(OCc1ccccc1)*
Attribute Measured: TGI

C/C(=C1/N=C(c2cc([N+](=O)[O-])ccc2Cl)N(c2ccc(Br)cc2)C1=O)c1cc2ccccc2oc1=O: > 100 µM
C=C(C)C12OC3(c4ccccc4)OC1C1C4OC4(CO)C(O)C4(O)C(=O)C(C)=CC4C1(O3)C(C)C2OC(=O)/C=C/C=C/c1ccccc1 (stereo not given): 0.519 µM
NC(Cc1cnc(I)[nH]1)C(=O)O (stereo not given): > 100 µM
CS(=O)(=O)OCCn1c2c(c3c(O)cccc31)C(=O)c1ccccc1-2: > 100 µM

Looking up `Nc1c(C(=O)c2cccc(-c3ccncc3)c2)cnn1-c1ccc(F)cc1` , I found its TGI recorded as > 25 µM

Looking up NC(=O)CNC(=O)C1CC(O)CN1C(=O)OCc1ccccc1 (stereo not given) (Cbz-[ξHyp]-Gly-NH2) , I found its TGI recorded as > 100 µM

----------
System: HOP-92 NSCLC
Assay: NCI tumour cell line growth inhibition, 48 h
Where a SMILES comes first, the peptide text is derived from it. [ ]: non-standard residue; d: D form. The star is where a group is joined. Phe(2-OMe) = COc1ccccc1C[CH](N)C(=O)O; Cbz = O=C(OCc1ccccc1)*; OBn = c1ccc(CO*)cc1
Form field: TGI (one value per entry).

Recorded results for 5 compounds are shown here.
CC12C=C[C@]3(CC[C@@H]4[C@@](C)(CO)CCC[C@]4(C)C3CC1)C2 (stereo partly specified): > 65 µM
CCN(CC)CCN1CCc2c([nH]c3ccccc23)C1c1cccnc1 (stereo unspecified): > 100 µM
CC(C)CC(=O)[O-].N.N.N.N.N.[Co+3].[O-][Cl+3]([O-])([O-])[O-]: > 100 µM
O=c1cc(O)ccn1C1C=C(CO)C(O)C1O (stereo unspecified): > 625 µM
COc1ccc2nc3n(c2c1)C(c1c(F)cccc1Cl)SC3 (stereo unspecified): > 100 µM

# next compound below
Looking up COC(=O)C(Cc1ccccc1OC)NC(=O)C(CC(=O)OCc1ccccc1)NC(=O)OCc1ccccc1 (stereo unspecified) (Cbz-Asp(OBn)-[Phe(2-OMe)]-OMe; configuration not given here) , I found its TGI recorded as > 100 µM
